System: HCT-116 colon
Assay: NCI tumour cell line growth inhibition, 48 h
propertyName: TGI (µM)
Only the number, expressed in µM, is required.

Solved cases (2 shown):
1) CN(C)c1ccc(N=C2C=CC(=[N+](C)C)C=C2)cc1 = 17.8
2) COC(=O)[C@]12CC[C@@H](C)[C@H](C)[C@@H]1C1=CC[C@@H]3[C@@]4(C)C(C=O)=C[C@@](C)(COC(C)=O)C4=CC[C@@]3(C)[C@]1(C)CC2 = 10.4

Notebook: pull reported TGI for HCT-116 colon, entry C[C@]12CC/C(=N\O)C=C1CC[C@@H]1[C@@H]2CC[C@]2(C)C(=N/O)/C(=C/c3ccc([N+](=O)[O-])cc3)C[C@@H]12
14.2

Notebook: pull reported TGI for HCT-116 colon, entry COc1c(C(=O)c2ccc([N+](=O)[O-])cc2)cc(C(C)(C)C)cc1C(C)(C)C
62.9

Notebook: pull reported TGI for HCT-116 colon, entry Cc1cccc2c1N(C(=O)/C=C\C(=O)O)C(c1c(C)[nH]c3ccccc13)C2 (configuration not stated)
54.3

Notebook: pull reported TGI for HCT-116 colon, entry O=C(N/N=C/c1cc(Cl)cc(Cl)c1[O-])c1ccccc1O.O=C(N/N=C/c1cc(Cl)cc(Cl)c1[O-])c1ccccc1O.[Zn+2]
14.5

Notebook: pull reported TGI for HCT-116 colon, entry COc1ccc(C(=O)COC(=O)[C@H](C[Se][Se]C[C@H](NC(=O)c2ccc(Br)cc2F)C(=O)OCC(=O)c2ccc(OC)cc2)NC(=O)c2ccc(Br)cc2F)cc1
2.78

Notebook: pull reported TGI for HCT-116 colon, entry CCN(CC)CCOc1ccccc1/C=C/c1noc2ccccc12
19.2
